Answer each item with its documented NF-kB SEAP reporter activity.
test system: RAW-Dual; test: NF-kB SEAP reporter activity, fold change vs agonist alone; cytotoxicity flag (confluency mask): not cytotoxic; higher = enhanced NF-kB activity; details: agonist: LPS (TLR4) 0.1 ug/mL
Over roughly 2,900 compounds, “NF-kB SEAP reporter activity, fold change vs agonist alone” has its median near 0.99; the highest 2% begin near 2.6. The sample holds the highest values, similar compounds and a random draw of the others, so the mix is not that of the screen.

- COMPOUND: "Cn1cc(-c2cc(Oc3cc(F)c(NC(=O)C4(C(=O)Nc5ccccc5)CC4)cc3F)ccn2)cn1 (library stock concentration (final ~1000-fold dilution): 10 mM)"
  NF-kB SEAP reporter activity: 3.09

For each entry beneath this line, provide reported NF-kB SEAP reporter activity.
1. COc1cc2nccc(Oc3ccc(NC(=O)C4(C(=O)Nc5ccc(F)cc5)CC4)cc3)c2cc1OC.O=C(O)CC(O)C(=O)O (library stock concentration (final ~1000-fold dilution): 10 mM)
2. CN1C(=O)c2sccc2N(C)c2nc(Nc3ccc(S(N)(=O)=O)cc3)ncc21 (library stock concentration (final ~1000-fold dilution): 10 mM)

1. 0.861
2. 5.75
